Values from patent US20100137275A1

Listed here: items and their measured IC50.
- Experimental target: purified recombinant Cdc25-C enzyme (MBP-Cdc25C protein) (Homo sapiens, UniProt P30307)
- Method summary: Phosphatase activity of the purified recombinant Cdc25C enzyme (OMFP dephosphorylation, fluorescence)
- Experimental parameters: OMFP 500 μM, 4 hours at 30° C.
Experimental readout: IC50

CN(CCCN)CCCNc1cc(N2CCCC2)nc(N2CCCC2)n1	≤ 5 µM
CN(CCNC(=S)Nc1ccc(C(C)(C)C)cc1)CCNc1cc(N2CCCC2)nc(N2CCCC2)n1	≤ 1 µM
O=C(NCCCCCNc1cc(N2CCCC2)nc(N2CCCC2)n1)Nc1ccc(Cl)cc1	≤ 1 µM
Cc1noc(C)c1NC(=O)NCCN(C)CCNc1cc(N2CCCC2)nc(N2CCCC2)n1	≤ 1 µM
CN(CCNC(=S)NCc1ccc(F)cc1)CCNc1cc(N2CCCC2)nc(N2CCCC2)n1	≤ 1 µM
CN(CCNC(=S)Nc1ccc(S(=O)(=O)N2CCCCC2)cc1)CCNc1cc(N2CCCC2)nc(N2CCCC2)n1	≤ 5 µM
CN(CCNc1cc(N2CCCC2)nc(N2CCCC2)n1)CCNS(=O)(=O)c1ccc([N+](=O)[O-])cc1	≤ 1 µM
CN(CCNC(=O)Nc1cccs1)CCNc1cc(N2CCCC2)nc(N2CCCC2)n1	≤ 1 µM
CN(CCNC(=S)Nc1ccc(Cl)cc1)CCNc1cc(N(C)C)nc(N(C)C)n1	≤ 5 µM
CN(CCNC(=O)N[C@@H]1CCc2ccccc2C1)CCNc1cc(N2CCCC2)nc(N2CCCC2)n1	≤ 5 µM
CN(CCNC(=S)NCc1ccco1)CCNc1cc(N2CCCC2)nc(N2CCCC2)n1	≤ 5 µM
S=C(NCCCCCNc1cc(N2CCCC2)nc(N2CCCC2)n1)Nc1ccc(Cl)cc1	≤ 5 µM
CN(CCNC(=S)Nc1ccc(Cl)c(C(F)(F)F)c1)CCNc1cc(N2CCCC2)nc(N2CCCC2)n1	≤ 5 µM
CN(CCNC(=O)c1ccc(C(=O)c2ccccc2)cc1)CCNc1cc(N2CCCC2)nc(N2CCCC2)n1	≤ 5 µM
Cc1cc(C)nc(NS(=O)(=O)c2ccc(NC(=S)NCCN(C)CCNc3cc(N4CCCC4)nc(N4CCCC4)n3)cc2)n1	≤ 1 µM
CN(CCNC(=S)Nc1ccc(Cl)cc1)CCNc1cc(N2CCCCC2)nc(N2CCCCC2)n1	≤ 1 µM

---

Listed below: IC50 values for each entry.
- Experimental target: purified recombinant Cdc25-C enzyme (MBP-Cdc25C protein) (Homo sapiens, UniProt P30307)
- Sequence (P30307 1-473): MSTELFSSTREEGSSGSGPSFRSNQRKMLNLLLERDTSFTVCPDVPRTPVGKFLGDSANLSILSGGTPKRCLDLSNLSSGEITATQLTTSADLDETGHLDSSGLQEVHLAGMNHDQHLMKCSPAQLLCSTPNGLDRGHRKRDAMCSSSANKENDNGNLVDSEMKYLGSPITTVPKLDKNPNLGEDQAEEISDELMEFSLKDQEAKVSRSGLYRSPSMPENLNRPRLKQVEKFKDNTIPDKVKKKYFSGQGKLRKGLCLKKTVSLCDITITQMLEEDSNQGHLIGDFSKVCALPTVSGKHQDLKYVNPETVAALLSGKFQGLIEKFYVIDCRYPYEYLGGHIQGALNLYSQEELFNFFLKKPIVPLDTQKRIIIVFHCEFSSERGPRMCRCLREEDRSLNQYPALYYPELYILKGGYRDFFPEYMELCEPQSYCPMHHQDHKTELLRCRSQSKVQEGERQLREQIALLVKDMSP
- Method summary: Phosphatase activity of the purified recombinant Cdc25C enzyme (OMFP dephosphorylation, fluorescence)
- Experimental parameters: OMFP 500 μM, 4 hours at 30° C.
Experimental readout: IC50

CCN(CC)c1cc(NCCN(C)CCNC(=S)Nc2ccc(Cl)cc2)nc(N(CC)CC)n1	≤ 1000 nM
CCNC(=S)NCCN(C)CCNc1cc(N2CCCC2)nc(N2CCCC2)n1	≤ 1000 nM
CCNC(=O)NCCN(C)CCNc1cc(N2CCCC2)nc(N2CCCC2)n1	≤ 5000 nM
CN(CCNC(=S)Nc1ccc(Oc2ccccc2)cc1)CCNc1cc(N2CCCC2)nc(N2CCCC2)n1	≤ 5000 nM
CN(CCNC(=S)Nc1ccc(Cl)nc1)CCNc1cc(N2CCCC2)nc(N2CCCC2)n1	≤ 1000 nM
CN(CCNC(=S)Nc1ccc(S(N)(=O)=O)cc1)CCNc1cc(N2CCCC2)nc(N2CCCC2)n1	≤ 1000 nM

---

Reported melting point by item:
Experimental readout: melting point

CN(CCNC(=S)Nc1ccc(Cl)c(F)c1)CCNc1cc(N2CCCC2)nc(N2CCCC2)n1 [Example 56]	146 to 148 °C
CN(CCNC(=S)Nc1ccc(C#N)cc1)CCNc1cc(N2CCCC2)nc(N2CCCC2)n1 [Example 77]	107 to 109 °C
COc1cc(NC(=S)NCCN(C)CCNc2cc(N3CCCC3)nc(N3CCCC3)n2)cc(OC)c1OC [Example 38]	109 to 111 °C
CCN(CCN(C)CCNc1cc(N2CCCC2)nc(N2CCCC2)n1)C(N)=O [Example 18]	127 to 129 °C
CN(CCN)CCNc1cc(N2CCCC2)nc(N2CCCC2)n1 [Example 1]	67 to 69 °C
CN(CCNC(=S)Nc1ccc(-n2cccn2)cc1)CCNc1cc(N2CCCC2)nc(N2CCCC2)n1 [Example 48]	116 to 118 °C
CCNc1cc(NCCN(C)CCNC(=S)Nc2ccc(Cl)cc2)nc(NCC)n1 [Example 79]	142 to 144 °C
